Exercise: for every item that follows, state its recorded tissue uptake dose at 4 h.
test-protocol: in vivo
Set-up: species or system BALB/C nu/nu mice
setup-conditions: BALB/C nu/nu, mouse, iv, 40 pmol, total radioactivity, Carcass (whole body) uptake
Starred links: 1 amine or outer side, 2 acyl side, 3 side chain; linkers in the order of their positions; H or OH if unused. Non-standard residues stand in square brackets, D forms with d. Residues, ends and D or L forms follow the SMILES beside them. *: point of attachment. DOTAGA = O=C(O)CN1CCN(CC(=O)O)CCN(C(CCC(=O)*)C(=O)O)CCN(CC(=O)O)CC1; Sta = CC(C)C[C@H](N)[C@@H](O)CC(=O)O; X1 = O=C(CN1CCC(N[*:1])CC1)[*:2]; Sar = CNCC(=O)O
Note to self: number, then unit, no commentary.

Observe how each entry below is paired with its result.
compound="CC(C)C[C@H](NC(=O)C[C@H](O)[C@H](CC(C)C)NC(=O)[C@H](Cc1c[nH]cn1)NC(=O)CN(C)C(=O)[C@@H](NC(=O)[C@H](C)NC(=O)[C@H](Cc1c[nH]c2ccccc12)NC(=O)[C@H](CCC(N)=O)NC(=O)[C@@H](Cc1ccccc1)NC(=O)CN1CCC(NC(=O)[C@H](CCCNC(=N)N)NC(=O)[C@H](CCCNC(=N)N)NC(=O)CCC(C(=O)O)N2CCN(CC(=O)O)CCN(CC(=O)O)CCN(CC(=O)O)CC2)CC1)C(C)C)C(N)=O (stereo partly drawn) [[^111In]In-AU-RM26-M4, metal not drawn] ({DOTAGA}-RR[X1][dF]QWAV[Sar]H[Sta]L-NH2)" metric="tissue uptake dose at 4 h" value_reported="3 %ID"
compound="CC(C)C[C@H](NC(=O)C[C@H](O)[C@H](CC(C)C)NC(=O)[C@H](Cc1c[nH]cn1)NC(=O)CN(C)C(=O)[C@@H](NC(=O)[C@H](C)NC(=O)[C@H](Cc1c[nH]c2ccccc12)NC(=O)[C@H](CCC(N)=O)NC(=O)[C@@H](Cc1ccccc1)NC(=O)COCCOCCNC(=O)CCC(C(=O)O)N1CCN(CC(=O)O)CCN(CC(=O)O)CCN(CC(=O)O)CC1)C(C)C)C(N)=O (stereo partly drawn) [[^111In]In-AU-RM26-M1, [^111In]In-DOTAGA-PEG2-[Sar^11]RM26, metal not drawn, reference compound]" metric="tissue uptake dose at 4 h" value_reported="1.3 %ID"

Lookup: Using the record for CC(C)C[C@H](NC(=O)C[C@H](O)[C@H](CC(C)C)NC(=O)[C@H](Cc1c[nH]cn1)NC(=O)CN(C)C(=O)[C@@H](NC(=O)[C@H](C)NC(=O)[C@H](Cc1c[nH]c2ccccc12)NC(=O)[C@H](CCC(N)=O)NC(=O)[C@@H](Cc1ccccc1)NC(=O)[C@H](CCCNC(=N)N)NC(=O)COCCOCCNC(=O)CCC(C(=O)O)N1CCN(CC(=O)O)CCN(CC(=O)O)CCN(CC(=O)O)CC1)C(C)C)C(N)=O (stereo partly drawn) [[^111In]In-AU-RM26-M3, metal not drawn] , report its tissue uptake dose at 4 h.
Found: 1.7 %ID
